- System: EKVX NSCLC
- Method Summary: NCI tumour cell line growth inhibition, 48 h; in the data active = GI50 below about 0.43 µM; inactive = the rest
Tick one outcome: active, inactive

Example results:
Molecule	Assigned Category
COc1ccc(/C(C#N)=C/c2ccccc2OC)cc1	inactive
COc1ccc(-c2csc(N(C(=O)N3CCN(c4cc5c(cc4F)c(=O)c(C(=O)O)cn5C4CC4)CC3)c3ccccc3)n2)cc1	inactive
O=C(NCCO)Nc1ccc(-c2nc(N3CCOCC3)c3cccn3n2)cc1	active
N#Cc1c(N2CCCC2)[nH]c(=O)c(C(c2c(Cl)cccc2Cl)c2c(O)c(C#N)c(N3CCCC3)[nH]c2=O)c1O	active
CC[C@@H](C(=O)O)C1CC[C@H](C)C([C@@H](C)[C@H](O)[C@H](C)C(=O)[C@H](CC)C2O[C@]3(C=C[C@@H](O)[C@]4(CC[C@@](C)(C5CC[C@](O)(CC)[C@H](C)O5)O4)O3)[C@H](C)C[C@@H]2C)O1 (some centres not stated)	inactive
CC#C[C@]1(O)CC[C@H]2[C@@H]3CCC4=CC(=O)CCC4=C3[C@@H](c3ccc4c(c3)OCO4)C[C@@]21C	inactive

Enquiry: Which outcome did this test record for the molecule `COc1ccc(/C(=C2/O[C@@H]([C@H]3COC(C)(C)O3)[C@H]3OC(C)(C)O[C@@H]23)c2cc(OC)c(OC)c(OC)c2)cc1O` ?
Return: inactive
